Target: PIM2 (human) (UniProt Q9P1W9)
Sequence (Q9P1W9 whole entry, looked up): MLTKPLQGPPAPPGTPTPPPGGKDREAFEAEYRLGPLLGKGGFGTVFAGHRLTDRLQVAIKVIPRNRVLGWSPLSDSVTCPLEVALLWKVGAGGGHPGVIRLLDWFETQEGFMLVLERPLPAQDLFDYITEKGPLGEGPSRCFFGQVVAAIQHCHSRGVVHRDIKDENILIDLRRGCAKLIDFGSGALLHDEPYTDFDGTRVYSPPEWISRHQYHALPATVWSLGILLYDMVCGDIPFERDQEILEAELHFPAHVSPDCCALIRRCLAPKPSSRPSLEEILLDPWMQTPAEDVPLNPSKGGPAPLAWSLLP
Assay: radiometric filter-binding kinase assay
Conditions: compound 10.0 µM
PARAMETER MEASURED: residual activity (%)
Numbers only, in %.

// solved cases for residual activity follow
NC(=O)c1cc2c(-c3cccc(-c4ccccc4)c3)cnc(N)c2s1    81
CCOC(=O)c1ccc(N2NC(=O)/C(=C/c3ccc([N+](=O)[O-])o3)C2=O)cc1    107
O=C(Nc1ccccc1-c1cn2c(CN3CCNCC3)csc2n1)c1cnc2ccccc2n1    78
NC1(c2ccc(-c3nc4ccn5c(=O)[nH]nc5c4cc3-c3ccccc3)cc2)CCC1    97
N#Cc1c(O)c2c(-c3ccc(-c4ccccc4O)cc3)csc2[nH]c1=O    71
CCc1cncnc1N1CCN(Cc2nc3cc(C(F)(F)F)ccc3[nH]2)CC1    100

Would you kindly look at the next entry?
Dear colleague, I am looking for the recorded residual activity of the following compound: CCn1c(-c2nonc2N)nc2cncc(CNC3CCNCC3)c21 69
